Test system: intestinal alkaline phosphatase [Mus musculus]
METHOD_SUMMARY: mouse intestinal phosphatase enzyme activation – biochemical, luminescence, single concentration, confirmation (AID 434970)
CONDITION_INFO: purified mouse IAP, CDP-Star luminescence, 30 min, at 10 µM; measured here: IAP activation factor, stronger effect = higher value
About 310 (2.8%) of roughly 11,000 compounds were called active. The full list was thinned out, with actives kept by preference.
Listing of recorded activation factor by entry.
Quick one: just the number, no unit, thanks!

Worked examples, 5 compounds total:
{"COMPOUND": "O=C(c1cc(-c2cccs2)on1)N1CCN(C(c2ccccc2)c2ccccc2)CC1", "RESULT": 0.971}
{"COMPOUND": "Cc1cccc(N/C(N)=N/c2nc(C)cc(C)n2)c1", "RESULT": 1.05}
{"COMPOUND": "Cc1cccc(NC(=O)NC2CCCCCCC2)c1", "RESULT": 2.45}
{"COMPOUND": "COc1ccc(NC2=C(C(C)=O)C(c3ccc(OC)c(OC)c3)C(C(C)=O)C(C)(O)C2)cc1 (stereo unspecified)", "RESULT": 1.08}
{"COMPOUND": "CC(=O)OC(C(=O)NC1CCCCC1)c1cccc(C)c1 (stereo unspecified)", "RESULT": 1.04}

Query (compound): COCCN(CC(=O)NCc1ccc2c(c1)OCO2)C(=O)CCC(=O)Nc1nccs1 ; field requested: activation factor
0.99

Query (compound): Cc1ccc(NC(=S)NC2CCCCC2)cc1S(=O)(=O)N(C)C ; field requested: activation factor
1.3

----------
System: intestinal alkaline phosphatase [Mus musculus]
METHOD_SUMMARY: mouse intestinal phosphatase enzyme activation – biochemical, luminescence, single concentration, confirmation (AID 434970)
CONDITION_INFO: purified mouse IAP, CDP-Star luminescence, 30 min, at 10 µM; stronger effect = lower value
In all, about 11,000 compounds went through this assay and about 310 (2.8%) were called active. The sample holds actives, similar compounds and a random draw of the others, so the mix is not that of the screen.
Listing of recorded activity change, negative = activation by entry.
Please reply with the bare figure in % and do not write the unit itself.

Worked examples, 3 compounds total:
{"COMPOUND": "COc1ccc(Cc2nn[nH]n2)cc1", "activity change, negative = activation, %": -17.9}
{"COMPOUND": "O=C(NC1CCCC1)C(c1ccc(F)cc1)N(Cc1ccc(F)cc1)C(=O)c1ccn[nH]1 (stereo not given)", "activity change, negative = activation, %": -105}
{"COMPOUND": "COC(=O)CC1C(=O)NCCN1C(=O)Nc1ccccc1 (stereo not given)", "activity change, negative = activation, %": 6.25}

Query (compound): CCC1CCCCN1CCCNC(=O)CNC(=O)Cn1ccc2ccccc2c1=O (stereo not given) ; field requested: activity change, negative = activation
7.35

Query (compound): CC1OC23CCCCC2C(C#N)(C(=N)O3)C1(C#N)C#N (stereo not given) ; field requested: activity change, negative = activation
4.1

Query (compound): O=C(c1ccc(F)cc1)N1CCN(Cc2ccccc2Br)CC1 ; field requested: activity change, negative = activation
1.55

----------
Test system: intestinal alkaline phosphatase [Mus musculus]
METHOD_SUMMARY: mouse intestinal phosphatase enzyme activation – biochemical, luminescence, single concentration, confirmation (AID 434970)
CONDITION_INFO: purified mouse IAP, CDP-Star luminescence, 30 min, at 10 µM; measured here: IAP activation factor, stronger effect = higher value
In all, about 11,000 compounds went through this assay and about 310 (2.8%) were called active. The sample as a whole holds a higher share of actives than the screen did.
Decide by activation factor: equal to or exceeding 1 means yes, less means no.

Please indicate if the recorded activation factor for CCOC(=O)CNC(=O)Nc1cccc(Cl)c1C meets or exceeds 1.
yes

Please indicate if the recorded activation factor for CCCCNC(=O)Nc1ccc2c(c1)N(C)C(=O)c1ccccc1S2 meets or exceeds 1.
yes

Please indicate if the recorded activation factor for COc1ccc(-c2nnc(SCC(=O)N3CCOCC3)n2C)cc1OC meets or exceeds 1.
yes

Please indicate if the recorded activation factor for COc1cccc(NC(=O)CC2COc3ccccc3O2)c1 (stereo not given) meets or exceeds 1.
yes

Please indicate if the recorded activation factor for COc1ccc(C2CC(c3ccccc3Cl)=NN2c2ccc(S(N)(=O)=O)cc2)cc1 (stereo not given) meets or exceeds 1.
yes
